Would you kindly list Potency for each of these compounds?
Biological target: Glucocorticoid receptor (Homo sapiens) (UniProt P04150)
Sequence (P04150 whole entry, looked up): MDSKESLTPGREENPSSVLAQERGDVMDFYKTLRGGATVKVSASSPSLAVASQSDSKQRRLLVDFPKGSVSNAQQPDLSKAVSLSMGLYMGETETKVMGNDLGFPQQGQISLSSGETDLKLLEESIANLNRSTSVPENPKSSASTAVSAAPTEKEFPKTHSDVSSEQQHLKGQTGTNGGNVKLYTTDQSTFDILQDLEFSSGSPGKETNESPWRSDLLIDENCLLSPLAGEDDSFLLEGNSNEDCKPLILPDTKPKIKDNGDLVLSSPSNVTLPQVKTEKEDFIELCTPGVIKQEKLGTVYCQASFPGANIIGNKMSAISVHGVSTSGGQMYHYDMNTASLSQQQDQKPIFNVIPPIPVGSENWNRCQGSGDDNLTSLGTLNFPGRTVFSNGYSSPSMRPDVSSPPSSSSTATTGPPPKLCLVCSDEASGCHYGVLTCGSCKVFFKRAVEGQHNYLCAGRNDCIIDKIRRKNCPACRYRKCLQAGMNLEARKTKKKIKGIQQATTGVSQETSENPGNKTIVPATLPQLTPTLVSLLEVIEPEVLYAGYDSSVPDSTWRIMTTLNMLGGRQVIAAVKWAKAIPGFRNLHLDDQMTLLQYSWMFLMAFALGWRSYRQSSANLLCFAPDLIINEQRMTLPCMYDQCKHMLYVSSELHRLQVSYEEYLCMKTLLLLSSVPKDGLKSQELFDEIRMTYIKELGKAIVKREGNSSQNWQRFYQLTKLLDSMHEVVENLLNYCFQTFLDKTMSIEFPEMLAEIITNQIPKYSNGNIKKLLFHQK
Assay: GR-GFP Redistribution (AID 450); note: potency is the fitted concentration of half-maximal effect
Conditions: U2OS GR-GFP nuclear translocation, laser cytometry, 2 h
Protocol: NIH Molecular Libraries Screening Centers Network [MLSCN] NIH Chemical Genomics Center [NCGC] […] GR-GFP U2OS cells were maintained in DMEM with Glutamax and high glucose, 1% v/v penicillin-streptomycin, and 0.5 mg/mL Geneticin. […] The plates were read by the Acumen Explorer using a 1 x 8 um scan of the whole well area. PI fluorescence triggered the collection of PI and GFP signals. […]
Calls of active or inactive are those of the source.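 Rule for the calls: active = compounds whose dose series gives a full or clear partial fitted curve of increased nuclear translocation; inconclusive = weak partial curve or effect only at the top dose; inactive = no dose-dependent translocation response.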

Look up Potency with Glucocorticoid receptor (Homo sapiens) (UniProt P04150) for this compound: N#Cc1cccc(-c2cncnc2NCc2ccccc2)c1
> 46 µM (inactive)

Look up Potency with Glucocorticoid receptor (Homo sapiens) (UniProt P04150) for this compound: COc1ccc(Oc2ncc3nc(-c4cccs4)c(=O)n(-c4ccccc4)c3n2)cc1
> 9.22 µM (inactive)

Look up Potency with Glucocorticoid receptor (Homo sapiens) (UniProt P04150) for this compound: COCCNc1ncnc2ccc(-c3c(C)noc3C)cc12
> 46 µM (inactive)

Look up Potency with Glucocorticoid receptor (Homo sapiens) (UniProt P04150) for this compound: COCCn1c(=O)c(C)nc2cnc(OC)nc21
> 9.22 µM (inactive)

Look up Potency with Glucocorticoid receptor (Homo sapiens) (UniProt P04150) for this compound: O=c1c(-c2ccc(Cl)cc2)nc2cnc(Nc3ccccc3)nc2n1C1CC1
> 9.22 µM (inactive)

Look up Potency with Glucocorticoid receptor (Homo sapiens) (UniProt P04150) for this compound: CN(C)C(=O)c1ccc(-c2ccc3ncnc(N(C)Cc4ccco4)c3c2)cc1
> 46 µM (inactive)

Look up Potency with Glucocorticoid receptor (Homo sapiens) (UniProt P04150) for this compound: CNc1nc(-c2ccccc2C)nc2ccccc12
> 46 µM (inactive)

Look up Potency with Glucocorticoid receptor (Homo sapiens) (UniProt P04150) for this compound: COc1ccc(-c2nc3cnc(OC)nc3n(C[C@H]3CCCO3)c2=O)cc1
> 9.22 µM (inactive)

Look up Potency with Glucocorticoid receptor (Homo sapiens) (UniProt P04150) for this compound: Cc1cnc(CNc2ccnc(-c3ccoc3)n2)cn1
> 46 µM (inactive)

Look up Potency with Glucocorticoid receptor (Homo sapiens) (UniProt P04150) for this compound: COc1cccc(-c2cc(NCc3ccc(OC)cc3OC)ncn2)c1
> 46 µM (inactive)

Look up Potency with Glucocorticoid receptor (Homo sapiens) (UniProt P04150) for this compound: Cn1c(=O)c(-c2ccccc2)nc2cnc(Nc3ccccc3)nc21
> 9.22 µM (inactive)

Look up Potency with Glucocorticoid receptor (Homo sapiens) (UniProt P04150) for this compound: O=c1c(CCc2ccccc2)nc2cncnc2n1C1CC1
> 9.22 µM (inactive)

Look up Potency with Glucocorticoid receptor (Homo sapiens) (UniProt P04150) for this compound: COc1cccc(Cn2c(=O)cnc3cnc(OC)nc32)c1
> 9.22 µM (inactive)

Look up Potency with Glucocorticoid receptor (Homo sapiens) (UniProt P04150) for this compound: CCNc1ncc2ncc(=O)n(C[C@H]3CCCO3)c2n1
> 9.22 µM (inactive)

Look up Potency with Glucocorticoid receptor (Homo sapiens) (UniProt P04150) for this compound: COc1ccc2[nH]cc(CCNc3ccnc(-c4c(C)noc4C)n3)c2c1
> 46 µM (inactive)

Look up Potency with Glucocorticoid receptor (Homo sapiens) (UniProt P04150) for this compound: CN(C)c1ccc(-c2cncnc2NCc2cccnc2)cc1
> 46 µM (inactive)

Look up Potency with Glucocorticoid receptor (Homo sapiens) (UniProt P04150) for this compound: COc1ccccc1-c1cc(Nc2ccc(F)cc2)ncn1
> 46 µM (inactive)

Look up Potency with Glucocorticoid receptor (Homo sapiens) (UniProt P04150) for this compound: Cn1c(=O)c(CCc2ccccc2)nc2cncnc21
> 9.22 µM (inactive)

Look up Potency with Glucocorticoid receptor (Homo sapiens) (UniProt P04150) for this compound: O=c1c(-c2ccccc2)nc2cnc(N3CCOCC3)nc2n1Cc1cccs1
> 9.22 µM (inactive)

Look up Potency with Glucocorticoid receptor (Homo sapiens) (UniProt P04150) for this compound: COc1ccccc1CCn1c(=O)c(-c2cccc(Cl)c2)nc2cncnc21
> 9.22 µM (inactive)

Look up Potency with Glucocorticoid receptor (Homo sapiens) (UniProt P04150) for this compound: Cc1noc(C)c1-c1nccc(NCc2ccccc2)n1
> 46 µM (inactive)

Look up Potency with Glucocorticoid receptor (Homo sapiens) (UniProt P04150) for this compound: COCCNc1ccnc(-c2c(C)noc2C)n1
> 46 µM (inactive)

Look up Potency with Glucocorticoid receptor (Homo sapiens) (UniProt P04150) for this compound: Cc1cnc(CNc2ccnc(-c3cccc(NS(C)(=O)=O)c3)n2)cn1
> 46 µM (inactive)

Look up Potency with Glucocorticoid receptor (Homo sapiens) (UniProt P04150) for this compound: CCCC[P+](CCCC)(CCCC)Cc1ccc(NC(=O)[C@@H](Cc2ccc3ccccc3c2)NC(=NC2CCCCC2)NC2CCCCC2)cc1
> 46 µM (inactive)

Look up Potency with Glucocorticoid receptor (Homo sapiens) (UniProt P04150) for this compound: N#Cc1cccc(-c2nc(Nc3ccccc3)c3ccccc3n2)c1
> 46 µM (inactive)

Look up Potency with Glucocorticoid receptor (Homo sapiens) (UniProt P04150) for this compound: CN(C)C(=O)c1ccc(-c2nc(-n3ccnc3)c3ccccc3n2)cc1
> 46 µM (inactive)

Look up Potency with Glucocorticoid receptor (Homo sapiens) (UniProt P04150) for this compound: COc1cccc(Cn2c(=O)c(-c3ccccc3)nc3cnc(N4CCN(C)CC4)nc32)c1
> 9.22 µM (inactive)

Look up Potency with Glucocorticoid receptor (Homo sapiens) (UniProt P04150) for this compound: CCNc1ncc2nc(-c3ccccc3)c(=O)n(CCOC)c2n1
> 9.22 µM (inactive)

Look up Potency with Glucocorticoid receptor (Homo sapiens) (UniProt P04150) for this compound: COCCn1c(=O)c(-c2ccc(Cl)cc2)nc2cnc(N3CCOCC3)nc21
> 9.22 µM (inactive)

Look up Potency with Glucocorticoid receptor (Homo sapiens) (UniProt P04150) for this compound: CN(Cc1ccco1)c1ccnc(-c2cccc(NS(C)(=O)=O)c2)n1
> 46 µM (inactive)

Look up Potency with Glucocorticoid receptor (Homo sapiens) (UniProt P04150) for this compound: O=c1c(-c2cccs2)nc2cnc(Oc3cccc(Cl)c3)nc2n1C1CC1
> 9.22 µM (inactive)

Look up Potency with Glucocorticoid receptor (Homo sapiens) (UniProt P04150) for this compound: COc1ccc(-c2nc3cnc(N4CCNCC4)nc3n(C)c2=O)cc1
> 9.22 µM (inactive)

Look up Potency with Glucocorticoid receptor (Homo sapiens) (UniProt P04150) for this compound: COc1cccc(-c2ccc3ncnc(N4CCOCC4)c3c2)c1
> 46 µM (inactive)

Look up Potency with Glucocorticoid receptor (Homo sapiens) (UniProt P04150) for this compound: Cc1cnc(CNc2cc(-c3ccccc3C)ncn2)cn1
> 46 µM (inactive)

Look up Potency with Glucocorticoid receptor (Homo sapiens) (UniProt P04150) for this compound: O=c1cnc2cnc(N3CCOCC3)nc2n1Cc1ccc(F)cc1
> 9.22 µM (inactive)

Look up Potency with Glucocorticoid receptor (Homo sapiens) (UniProt P04150) for this compound: CN1CCN(c2ncc3nc(-c4cccs4)c(=O)n(Cc4cccs4)c3n2)CC1
> 9.22 µM (inactive)

Look up Potency with Glucocorticoid receptor (Homo sapiens) (UniProt P04150) for this compound: FC(F)(F)c1ccccc1-c1cncnc1NCCc1cnc[nH]1
> 46 µM (inactive)

Look up Potency with Glucocorticoid receptor (Homo sapiens) (UniProt P04150) for this compound: CC(=O)NCCNc1nc(-c2ccc(N(C)C)cc2)nc2ccccc12
> 46 µM (inactive)

Look up Potency with Glucocorticoid receptor (Homo sapiens) (UniProt P04150) for this compound: CCNc1ncc2nc(CCc3ccccc3)c(=O)n(Cc3ccc(F)cc3)c2n1
> 9.22 µM (inactive)

Look up Potency with Glucocorticoid receptor (Homo sapiens) (UniProt P04150) for this compound: Cc1cnc(CNc2ncncc2-c2ccoc2)cn1
> 46 µM (inactive)

Look up Potency with Glucocorticoid receptor (Homo sapiens) (UniProt P04150) for this compound: COc1ncc2nc(CCc3ccccc3)c(=O)n(CCc3ccccc3)c2n1
> 9.22 µM (inactive)

Look up Potency with Glucocorticoid receptor (Homo sapiens) (UniProt P04150) for this compound: COc1ncc2nc(-c3ccc(Cl)cc3)c(=O)n(CCC#N)c2n1
> 9.22 µM (inactive)

Look up Potency with Glucocorticoid receptor (Homo sapiens) (UniProt P04150) for this compound: O=c1c(-c2ccc(Cl)cc2)nc2cncnc2n1Cc1ccccc1
> 9.22 µM (inactive)

Look up Potency with Glucocorticoid receptor (Homo sapiens) (UniProt P04150) for this compound: O=c1c(-c2ccccc2)nc2cncnc2n1C1CC1
> 9.22 µM (inactive)

Look up Potency with Glucocorticoid receptor (Homo sapiens) (UniProt P04150) for this compound: COc1ccc2[nH]cc(CCNc3ccnc(-c4cccc(C#N)c4)n3)c2c1
> 46 µM (inactive)

Look up Potency with Glucocorticoid receptor (Homo sapiens) (UniProt P04150) for this compound: CN(C)Cc1ccccc1-c1nccc(N(C)Cc2ccco2)n1
> 46 µM (inactive)
